Reported half-life values for the following compounds.
Assay: Screening pharmacokinetic study, plasma and brain (LC-MS/MS)
Assay type: in vivo, mice (C57BL6/J)
Details: male, C57BL6/J, mouse; mice, 200 mg/kg oral route, plasma

{"compound": "CCN(CC)CCOc1cc(/C=N/O)nc2c1ccc1cccnc12 [Compound 10]", "half-life [h]": 3.79}
{"compound": "CSc1cc(/C=N/O)nc2c1ccc1cccnc12 [Compound 4]", "half-life [h]": 0.92}

###

Assay: Screening pharmacokinetic study, plasma and brain (LC-MS/MS)
Type: in vivo, mice (C57BL6/J)
Conditions: male, C57BL6/J, mouse, plasma; mice, 20 mg/kg oral route (low dose)
property_name: bioavailability (%)

{"compound": "CC(C)Sc1cc(/C=N/O)nc2c1ccc1cccnc12", "readout_unit": "%", "value": 7.11}
{"compound": "COCCOc1cc(/C=N/O)nc2c1ccc1cccnc12", "readout_unit": "%", "value": 6.67}
{"compound": "CSc1cc(/C=N/O)nc2c1ccc1cccnc12", "readout_unit": "%", "value": 1.01}
{"compound": "CCN(CC)CCOc1cc(/C=N/O)nc2c1ccc1cccnc12", "readout_unit": "%", "value": 12.5}

###

Assay: Screening pharmacokinetic study, plasma and brain (LC-MS/MS)
Format: in vivo, mice (C57BL6/J)
Conditions: male, C57BL6/J, mouse; mice, intravenous route, group 1-2 mg/kg (Compound 4, 8: 1.00; 7: 1.20; 10: 2.00 mg/Kg), plasma

{"compound": "CCN(CC)CCOc1cc(/C=N/O)nc2c1ccc1cccnc12", "half-life": "8.1 h"}
{"compound": "COCCOc1cc(/C=N/O)nc2c1ccc1cccnc12", "half-life": "1.11 h"}
{"compound": "CC(C)Sc1cc(/C=N/O)nc2c1ccc1cccnc12", "half-life": "4.47 h"}
{"compound": "CSc1cc(/C=N/O)nc2c1ccc1cccnc12", "half-life": "0.22 h"}

###

Assay: Screening pharmacokinetic study, plasma and brain (LC-MS/MS)
Format: in vivo, mice (C57BL6/J)
Conditions: male, C57BL6/J, mouse, brain and plasma, iv, brain AUC relative to plasma AUC, mice, intravenous route, group 1-2 mg/kg; read-out: % AUC

{"compound": "CSc1cc(/C=N/O)nc2c1ccc1cccnc12", "Kp": 1.27}
{"compound": "CCN(CC)CCOc1cc(/C=N/O)nc2c1ccc1cccnc12", "Kp": 0.229}
{"compound": "CC(C)Sc1cc(/C=N/O)nc2c1ccc1cccnc12", "Kp": 1.04}
{"compound": "COCCOc1cc(/C=N/O)nc2c1ccc1cccnc12", "Kp": 0.0439}

###

Assay: Screening pharmacokinetic study, plasma and brain (LC-MS/MS)
Assay type: in vivo, mice (C57BL6/J)
Settings: male, C57BL6/J, mouse, brain and plasma, po, 200 mg/kg, brain AUC relative to plasma AUC, mice, 200 mg/kg oral route; read-out: % AUC
Reported Kp values for the following compounds.
property_name: Kp

{"compound": "CSc1cc(/C=N/O)nc2c1ccc1cccnc12", "value": 1.12}
{"compound": "CCN(CC)CCOc1cc(/C=N/O)nc2c1ccc1cccnc12", "value": 8.32}

###

Experiment: Screening pharmacokinetic study, plasma and brain (LC-MS/MS)
Assay type: in vivo, mice (C57BL6/J)
Conditions: male, C57BL6/J, mouse; mice, 20 mg/kg oral route, plasma
property_name: AUC (ng·h/mL)

{"molecule": "CCN(CC)CCOc1cc(/C=N/O)nc2c1ccc1cccnc12 [Compound 10]", "property_name": "AUC", "readout_unit": "ng·h/mL", "value": 184}
{"molecule": "CSc1cc(/C=N/O)nc2c1ccc1cccnc12 [Compound 4]", "property_name": "AUC", "readout_unit": "ng·h/mL", "value": 7.24}
{"molecule": "CC(C)Sc1cc(/C=N/O)nc2c1ccc1cccnc12 [Compound 7]", "property_name": "AUC", "readout_unit": "ng·h/mL", "value": 378}
{"molecule": "COCCOc1cc(/C=N/O)nc2c1ccc1cccnc12 [Compound 8]", "property_name": "AUC", "readout_unit": "ng·h/mL", "value": 325}

###

Test system: SH-SY5Y human neuroblastoma cells
Assay: Toxicity: LDH activity release in SH-SY5Y cells
Assay type: cell-based
Conditions: 24 h, increasing concentrations from 1 μM up to 1 mM
Reported Maximum concentration tested for toxicity values for the following compounds.
property_name: Maximum concentration tested for toxicity (µM)

{"compound": "COc1cc(C=NO)nc2c1ccc1cccnc12", "value": 1000}
{"compound": "CCCSc1cc(/C=N/O)nc2c1ccc1cccnc12", "value": 1000}
{"compound": "CCOc1cc(/C=N/O)nc2c1ccc1cccnc12", "value": 1000}
{"compound": "CSc1cc(C=O)nc2c1ccc1cccnc12", "value": 10}
{"compound": "NCCOc1cc(/C=N/O)nc2c1ccc1cccnc12", "value": 10}
{"compound": "ON=Cc1cc(Sc2nncs2)c2ccc3cccnc3c2n1", "value": 10}
{"compound": "CCN(CC)CCOc1cc(/C=N/O)nc2c1ccc1cccnc12", "value": 1}
{"compound": "Cc1nnc(Sc2cc(C=NO)nc3c2ccc2cccnc23)s1", "value": 10}
{"compound": "ON=Cc1cc(Sc2nccs2)c2ccc3cccnc3c2n1", "value": 100}

###

Experiment: Screening pharmacokinetic study, plasma and brain (LC-MS/MS)
Assay type: in vivo, mice (C57BL6/J)
Settings: male, C57BL6/J, mouse; mice, intravenous route, group 1-2 mg/kg (Compound 4, 8: 1.00; 7: 1.20; 10: 2.00 mg/Kg), plasma
Protocol: The objective of this study is to evaluate the oral bioavailability and the plasmatic and brain pharmacokinetic parameters after oral and intravenous administration, thus determining if compounds of formula (I) are able to cross the blood brain barrier (BBB). […] Each compound was solved in appropriate excipients. In the case of oral administration, compound was administered by means of an oral gavage coupled to a syringe. […]

{"compound": "CSc1cc(/C=N/O)nc2c1ccc1cccnc12", "readout_unit": "ng·h/mL", "AUC": 36}
{"compound": "CCN(CC)CCOc1cc(/C=N/O)nc2c1ccc1cccnc12", "readout_unit": "ng·h/mL", "AUC": 148}
{"compound": "COCCOc1cc(/C=N/O)nc2c1ccc1cccnc12", "readout_unit": "ng·h/mL", "AUC": 244}
{"compound": "CC(C)Sc1cc(/C=N/O)nc2c1ccc1cccnc12", "readout_unit": "ng·h/mL", "AUC": 319}

###

Assay: Screening pharmacokinetic study, plasma and brain (LC-MS/MS)
Format: in vivo, mice (C57BL6/J)
Settings: male, C57BL6/J, mouse, brain and plasma, po, 20 mg/kg, brain AUC relative to plasma AUC, mice, 20 mg/kg oral route; read-out: % AUC
Reported Kp values for the following compounds.

{"compound": "CSc1cc(/C=N/O)nc2c1ccc1cccnc12 [Compound 4]", "Kp": 2.76}
{"compound": "COCCOc1cc(/C=N/O)nc2c1ccc1cccnc12 [Compound 8]", "Kp": 0.0418}
{"compound": "CC(C)Sc1cc(/C=N/O)nc2c1ccc1cccnc12 [Compound 7]", "Kp": 0.278}
{"compound": "CCN(CC)CCOc1cc(/C=N/O)nc2c1ccc1cccnc12 [Compound 10]", "Kp": 0.119}

###

Assay: Screening pharmacokinetic study, plasma and brain (LC-MS/MS)
Type: in vivo, mice (C57BL6/J)
Settings: male, C57BL6/J, mouse, brain and plasma, po, 200 mg/kg, brain Cmax relative to plasma Cmax, mice, 200 mg/kg oral route; read-out: % Cmax
property_name: Kp

{"compound": "CCN(CC)CCOc1cc(/C=N/O)nc2c1ccc1cccnc12", "value": 1.96}
{"compound": "CSc1cc(/C=N/O)nc2c1ccc1cccnc12", "value": 1.5}

###

Experiment: Screening pharmacokinetic study, plasma and brain (LC-MS/MS)
Format: in vivo, mice (C57BL6/J)
Conditions: mice, intravenous route, group 1-2 mg/kg (Compound 4, 8: 1.00; 7: 1.20; 10: 2.00 mg/Kg), brain
Reported Cmax Brain values for the following compounds.

{"compound": "CSc1cc(/C=N/O)nc2c1ccc1cccnc12 [Compound 4]", "Cmax Brain, ng/g": 104.40}
{"compound": "COCCOc1cc(/C=N/O)nc2c1ccc1cccnc12 [Compound 8]", "Cmax Brain, ng/g": 36.10}
{"compound": "CCN(CC)CCOc1cc(/C=N/O)nc2c1ccc1cccnc12 [Compound 10]", "Cmax Brain, ng/g": 18.7}
{"compound": "CC(C)Sc1cc(/C=N/O)nc2c1ccc1cccnc12 [Compound 7]", "Cmax Brain, ng/g": 386.10}
